Test system: P94_40
Experiment: qHTS profiling for inhibitors of Plasmodium falciparum proliferation (AID 504749); further: nearly all actives have a fitted effect of over 60% in size
Conditions: P. falciparum in erythrocytes, SYBR Green DNA, 72 h; series mostly up to 28.7 µM
Results filed as inconclusive are left out. Activity calls are given as the source filed them. The call rests on the fitted dose curve; in most records, active means well fitted inhibition curve with a large enough effect; inconclusive means small, poorly fitted or top-dose-only effect; inactive means flat fitted curve, though single readings scatter.
Classes used: true (active), false (inactive)

Compound | Target entity | Classification
Cc1cc(N)c2ccccc2[n+]1CCCCCCCCCC[n+]1c(C)cc(N)c2ccccc21 | P94_40 | true
Nc1ccc(S(=O)(=O)Nc2ccccc2)cc1 | P94_40 | false
CCOC(=O)c1ccc(O)cc1 | P94_40 | false
C#CCN(C)Cc1ccccc1 | P94_40 | false
CNC(=O)Oc1ccc2c(c1)[C@]1(C)CCN(C)[C@@H]1N2C | P94_40 | true
O=c1cc[nH]c(=O)[nH]1 | P94_40 | false
O=S(=O)(O)NC1CCCCC1 | P94_40 | false
CC(C)(C)C(=O)C(Oc1ccc(Cl)cc1)n1ccnc1 (configuration not stated) | P94_40 | true
N[C@@H](CSCCCO)C(=O)O | P94_40 | false
CCCCOC(=O)c1ccc(O)cc1 | P94_40 | false
NC(=O)NNc1ccccc1 | P94_40 | false
CCCCC(CC)COC(=O)c1ccccc1O (configuration not stated) | P94_40 | false
CCCCOc1cc(C(=O)OCCN(CC)CC)ccc1N | P94_40 | false
O=C(O)[C@@H]1CSCN1 | P94_40 | false
CC1(C)OC(=O)NC1=O | P94_40 | false
O=c1cc(CO)occ1O | P94_40 | false
COc1cc2[nH]c(=O)[nH]c(=O)c2cc1OC | P94_40 | false
CCOc1ccc2ccccc2c1C(=O)N[C@@H]1C(=O)N2[C@@H]1SC(C)(C)[C@@H]2C(=O)O | P94_40 | false
CN(C)CCN(Cc1ccccc1)c1ccccn1 | P94_40 | false
COc1ccc2c(c1)C(=O)N(CCc1ccc(S(=O)(=O)NC(=O)NC3CCCCC3)cc1)C(=O)C2(C)C | P94_40 | false
O=C(Oc1ccccc1C(=O)O)c1ccccc1O | P94_40 | false
CC12CCC(CC1)C(C)(C)O2 | P94_40 | false
C[C@H]1O[C@@H](n2cc(F)c(=O)[nH]c2=O)[C@H](O)[C@@H]1O | P94_40 | false
CCN(CC)CCSC(=O)C(c1ccccc1)c1ccccc1 | P94_40 | false
CCn1cc(C(=O)O)c(=O)c2cnc(N3CCNCC3)nc21 | P94_40 | false
Cc1cc2c(cc1S(N)(=O)=O)S(=O)(=O)CCC2 | P94_40 | false
COC(=O)C1=C(C)NC(C)=C(C(=O)OC)C1c1ccccc1[N+](=O)[O-] | P94_40 | false

This collection of values is drawn from PubChem BioAssay (NCATS).
